Origin of the recorded values: PubChem BioAssay (NCI)

For each record, write down the corresponding growth inhibition.
- procedure-text: NCI Yeast Anticancer Drug Screen. Data for the mlh1 rad18 strain (AID 175)
- condition-details: S. cerevisiae mlh1 rad18 strain growth inhibition; at 50.0 µM; stronger effect = higher value
Compounds without any hit were thinned out: in the full panel of roughly 79,000, 15% have a hit.
Answers are plain numbers, in %.

Solved cases below.
{"molecule": "O=S(=O)([O-])[O-].O=c1[nH]cnc2[nH]ncc12.O=c1[nH]cnc2[nH]ncc12.[Cu+2]", "unit-of-measure": "%", "growth inhibition": -18.1}
{"molecule": "CCCCN1C(=O)c2ccccc2C1=O", "unit-of-measure": "%", "growth inhibition": 13.4}
{"molecule": "COc1cc([N+](=O)[O-])ccc1NC(=O)C(Br)C(Br)C(=O)O (centres undefined)", "unit-of-measure": "%", "growth inhibition": 16.4}

# molecule "O=C1C(OCc2ccccc2)=C(c2ccccc2)C(=O)N1c1ccccc1" ; its growth inhibition = -9.75

----------
- procedure-text: NCI Yeast Anticancer Drug Screen. Data for the mec2-1 strain (AID 157)
- condition-details: S. cerevisiae mec2-1 strain, at 50.0 µM, stronger effect = higher value
This is part of a sample that, as a whole, favours compounds with a hit. Of some 79,000 tested, about 15% had one in any assay.
reported-metric: growth inhibition (%)
Give bare numbers, in %.

{"compound": "Cc1cc(C)c(NC(=O)CC#N)cc1C", "growth inhibition / %": -12.6}
{"compound": "CC(=O)c1ccc([C@H](O)[C@H](CO)NC(=O)C(Cl)Cl)cc1", "growth inhibition / %": 0.45}
{"compound": "NC(=S)N/N=C/c1cccc(CC(O)(C(F)(F)F)C(F)(F)F)n1", "growth inhibition / %": 7.1}
{"compound": "C/C=C\\c1ccc2oc(-c3ccc4c(c3)OCO4)c(C)c2c1", "growth inhibition / %": 9.9}

For each listed entry, give its growth inhibition.
1. Cc1cc(C)[n+](C)c2cc3ccccc3cc12
2. S=c1nc[nH]c2nc(Cl)[nH]c12
3. CC(C)C(NC(=O)C1CSC(C)(C)N1C=O)C(=O)O (stereo unspecified)
4. Nc1cccc(-c2nc3ccccc3[nH]2)c1
5. O=C(O)C1COCOC1c1ccccc1 (stereo unspecified)
6. CC(=O)OCC1(C)CCC(C)CO1 (stereo unspecified)
7. COc1ccccc1Nc1nc(NNC(=O)Cc2ccccc2)nc(NNC(=O)c2ccncc2)n1
8. NC(=O)CCBr

Result:
1: -20.2; 2: -18.6; 3: -0.1; 4: -26.4; 5: -10.3; 6: -4.45; 7: 36.2; 8: 20.2

----------
- procedure-text: NCI Yeast Anticancer Drug Screen. Data for the sgs1 mgt1 strain (AID 161);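 note: 0% = growth of cultures given vehicle only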
- condition-details: S. cerevisiae sgs1 mgt1 strain, at 50.0 µM, stronger effect = higher value
The panel holds about 79,000 compounds, 15% with a hit somewhere; the sample as a whole holds those more often.
reported-metric: growth inhibition (%)
Give bare numbers, in %.

{"molecule": "O=C(COc1ccc(Cl)cc1)OCCCl", "reported-metric": "growth inhibition", "observed-measurement": 9.1}
{"molecule": "Cc1cccc(NC(=O)NC(O)C(Cl)(Cl)Cl)c1 (centres undefined)", "reported-metric": "growth inhibition", "observed-measurement": -6.25}
{"molecule": "C1CCCN(/N=N/N2CCCCCC2)CC1", "reported-metric": "growth inhibition", "observed-measurement": -1.7}
{"molecule": "CCCCOC(=O)C(=O)OCCCC", "reported-metric": "growth inhibition", "observed-measurement": 3.75}
{"molecule": "Nc1ncc2c(n1)-c1ccccc1OC2N1CCOCC1 (centres undefined)", "reported-metric": "growth inhibition", "observed-measurement": -0.45}
{"molecule": "COC1(OC)N=C(N)C2(C#N)/C(=N/N(C)C)CC(C)C12C#N (centres undefined)", "reported-metric": "growth inhibition", "observed-measurement": -18.4}
{"molecule": "CCOc1ccc(N=C=S)cc1", "reported-metric": "growth inhibition", "observed-measurement": 18}
{"molecule": "Cc1cc(N/N=C/c2ccc(Cl)cc2)c2cc3c(cc2n1)OCO3", "reported-metric": "growth inhibition", "observed-measurement": -7}

// growth inhibition value for "COC(C[P+](Cc1ccccc1)(c1ccccc1)c1ccccc1)OC" : 39
